test: Solubility of the compound in water
Type: physicochemical
measured.endpoint: solubility

The recorded solubility for entry CCCN1CCN(C(=O)c2ccc3[nH]c(=O)c4c(c3c2)CCSC4)CC1 equals > 1000 µg/mL

* * *

Below, each entry is listed alongside its reported ED50.
study.system: UniProt:P09874
Sequence (P09874 whole entry): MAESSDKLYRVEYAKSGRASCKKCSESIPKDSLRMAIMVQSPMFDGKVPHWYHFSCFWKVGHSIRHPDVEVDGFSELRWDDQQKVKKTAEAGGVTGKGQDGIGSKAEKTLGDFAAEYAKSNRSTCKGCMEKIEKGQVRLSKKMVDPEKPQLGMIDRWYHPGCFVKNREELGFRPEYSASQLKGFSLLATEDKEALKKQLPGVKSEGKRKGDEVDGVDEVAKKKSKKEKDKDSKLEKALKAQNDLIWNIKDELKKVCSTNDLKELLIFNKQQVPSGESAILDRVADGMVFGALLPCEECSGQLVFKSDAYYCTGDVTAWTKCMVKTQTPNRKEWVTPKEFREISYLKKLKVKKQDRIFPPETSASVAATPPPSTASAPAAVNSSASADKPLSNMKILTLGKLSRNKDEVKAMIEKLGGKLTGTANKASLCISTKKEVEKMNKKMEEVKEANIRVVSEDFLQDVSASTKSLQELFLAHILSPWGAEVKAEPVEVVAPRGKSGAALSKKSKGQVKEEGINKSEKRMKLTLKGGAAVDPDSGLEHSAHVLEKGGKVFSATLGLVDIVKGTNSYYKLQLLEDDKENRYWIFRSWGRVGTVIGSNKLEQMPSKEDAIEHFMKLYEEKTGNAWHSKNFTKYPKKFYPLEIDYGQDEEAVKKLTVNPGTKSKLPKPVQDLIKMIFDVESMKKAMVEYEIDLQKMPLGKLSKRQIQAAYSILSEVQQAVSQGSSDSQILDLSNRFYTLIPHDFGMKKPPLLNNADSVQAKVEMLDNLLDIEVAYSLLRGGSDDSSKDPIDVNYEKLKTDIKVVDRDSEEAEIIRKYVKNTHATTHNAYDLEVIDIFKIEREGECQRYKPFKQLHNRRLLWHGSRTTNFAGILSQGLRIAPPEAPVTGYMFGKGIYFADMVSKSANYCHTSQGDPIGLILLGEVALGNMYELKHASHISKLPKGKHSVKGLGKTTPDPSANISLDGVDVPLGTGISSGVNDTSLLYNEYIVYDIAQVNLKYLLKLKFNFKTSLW
test: Inhibition of PARP-1 (unknown origin) expressed in CHO-K1 cells assessed as depletion of NAD(P)H after 2 hr by CCK-8 assay
Assay type: cell-based

Example results:
> print(dat)
                         structure.notation  experimental.result
1  O=C(NCCN1CCCCC1)c1ccc2[nH]c(=O)c3c(c2c1)CCSC3              2810 nM
2  CC(C)CCN1CCN(C(=O)c2ccc3[nH]c(=O)c4c(c3c2)CCSC4)CC1               840 nM
3  O=C(c1ccc2[nH]c(=O)c3c(c2c1)CCSC3)N1CCN(C2CCCCCC2)CC1               500 nM
4    NCCNC(=O)c1ccc2[nH]c(=O)c3c(c2c1)CCSC3           > 30000 nM
5  CCCN1CCN(C(=O)c2ccc3[nH]c(=O)c4c(c3c2)CCSC4)CC1               540 nM

Now take the following compound into account.
The recorded ED50 for entry O=C(NCCN1CCOCC1)c1ccc2[nH]c(=O)c3c(c2c1)CCSC3 equals > 30000 nM
